System: RARa:RXR (NR concentration 270 nM, RXRa partner concentration 90 nM)
Assay: PBM binding z-score (relative to random genomic background probes); higher = stronger binding; sequences stand for … in GC…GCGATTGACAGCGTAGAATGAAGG
yes means recorded PBM binding z-score is 0.8 or above; no means it is below 0.8.

# input Is PBM binding z-score at least 0.8? Consider CATACTAGGTCAAGAGGTCAAAGTCCGCTTCCCG
# output yes

# input Is PBM binding z-score at least 0.8? Consider AGTCAAAGTTCCTCTAGGTAACGTAAGATATGCT
# output no

# input Is PBM binding z-score at least 0.8? Consider ATCTCTAGGTAACCAAGTACAGTGAATGCCGAAC
# output no

# input Is PBM binding z-score at least 0.8? Consider GATACAGGGTCAAGGCCTGAGTACGCGTATTGAT
# output yes

# input Is PBM binding z-score at least 0.8? Consider TCATATGGGTAAACAGGTGAAAGTCCGTAAGTTA
# output no

# input Is PBM binding z-score at least 0.8? Consider TCATATAGGTAAATGCTAGGAGAAAGTCCGATCT
# output no

# input Is PBM binding z-score at least 0.8? Consider AGTCAAAATTCATCTAGGTAACGTAAGATATGCT
# output no

# input Is PBM binding z-score at least 0.8? Consider TAGCCTAGGTCGTGGGCCAGTATACCACGCGAAC
# output no

# input Is PBM binding z-score at least 0.8? Consider CCTTACGGGTCAAGGTTACAGCACGGGTGGTACG
# output yes

# input Is PBM binding z-score at least 0.8? Consider CCTACTGGGCCACGAAAGATCATTGATTCAGTGA
# output no

# input Is PBM binding z-score at least 0.8? Consider GCTGCTAGGGCAACTGATGGTCAGCTAAAGCTCG
# output no

# input Is PBM binding z-score at least 0.8? Consider ACGATTAGTTGAGACGAGGGCAACCGATAGGTTG
# output yes

# input Is PBM binding z-score at least 0.8? Consider CGAACTAGGTCAGAACAGGACGGTGAAGGATGAT
# output no

# input Is PBM binding z-score at least 0.8? Consider CCTTACGGGTCAAGAGGTTATAGCACGACGAGCG
# output yes

# input Is PBM binding z-score at least 0.8? Consider CTACCAAGGGGAACAAGGTCGTTGATTACTATTC
# output yes

# input Is PBM binding z-score at least 0.8? Consider TCAGACAGGTGATGGTAACTCAGGTACGCAGTCG
# output no

# input Is PBM binding z-score at least 0.8? Consider ATCTCTATGTAAAGATAGTTCAGTGAATGCAAAT
# output no

# input Is PBM binding z-score at least 0.8? Consider ACTATTAGTTGCGACGAGGGCAACCGATAGGTTG
# output no

# input Is PBM binding z-score at least 0.8? Consider CCTTACGGGTCAATGACAGGTTATAGCATTTGGA
# output yes

# input Is PBM binding z-score at least 0.8? Consider TCATATAGGTAAATGCTCGGTGAAAGTCCGATCT
# output yes

# input Is PBM binding z-score at least 0.8? Consider AGTCAAAGTTCACTAGGTATCGTAAGATTCAGCT
# output yes

# input Is PBM binding z-score at least 0.8? Consider CTCGGAAGGTCGGTTGAGGTGAGTATACGGATAA
# output yes

# input Is PBM binding z-score at least 0.8? Consider CGAACTAGGTCATCCGGGACAGTGAATACATTGA
# output yes

# input Is PBM binding z-score at least 0.8? Consider TTACCAAGGTGAGCTGAGGTCGGTGATCCAACTC
# output yes

# input Is PBM binding z-score at least 0.8? Consider ACTTACGGGTCAAAGAGGTTATAGCACGCGTATA
# output yes

# input Is PBM binding z-score at least 0.8? Consider CGGCAAAGTTCAAGGTAACGTAACAGAAAGCAGC
# output yes

# input Is PBM binding z-score at least 0.8? Consider ATATGTAGGTTACATTCGGGTCATTCAGGCTATG
# output yes

# input Is PBM binding z-score at least 0.8? Consider TCCAGTTGGTCACGGAGGTCACACACGACGGGTA
# output yes

# input Is PBM binding z-score at least 0.8? Consider TCTTGTAGAGCAGCAGGTTAAGAAAGCTGGCCAA
# output no

# input Is PBM binding z-score at least 0.8? Consider ATCTCTAGGTAACAAGTTCAATGAAAGAGAGGAC
# output yes

# input Is PBM binding z-score at least 0.8? Consider AATACAGGGTCATCGTAGGCCAGATTACGCACAG
# output yes

# input Is PBM binding z-score at least 0.8? Consider AGAACGCGGGCAATGAGTTGATAGCACGGGTGGC
# output no

# input Is PBM binding z-score at least 0.8? Consider AGAATGAGGTTATACGTAGATTAGGGAAGAAAGT
# output yes

# input Is PBM binding z-score at least 0.8? Consider TCTGCTAGGTCCGTTGGTCAGCTAACGAGCTGCC
# output no

# input Is PBM binding z-score at least 0.8? Consider TCTGCTAGGTCAACGATGGTCATCTAATCTGCTA
# output yes

# input Is PBM binding z-score at least 0.8? Consider ATATGTAGGTTACACCCGGGTCATTCAGGCTATG
# output yes

# input Is PBM binding z-score at least 0.8? Consider GCTGCTAGGTCAACTGATGGTTAGCTAAAGCTCG
# output yes

# input Is PBM binding z-score at least 0.8? Consider CCTAGTTGGCCAGGAGGTCACACACCGGATATGA
# output yes

# input Is PBM binding z-score at least 0.8? Consider CAAACTAGGTCAAAGGTCAATGTCGAGCCAACCA
# output yes

# input Is PBM binding z-score at least 0.8? Consider CCTAGCAGGCCAATCTGGGTCACGCAAGGCTTGA
# output yes

# input Is PBM binding z-score at least 0.8? Consider TCTTGTAGATCAACAGGAGCTTAAGAAAGATCGA
# output no

# input Is PBM binding z-score at least 0.8? Consider GCTAGTTGGTCAGTCAAAGGTCACACACCGGTCG
# output yes
